assay: Ratio of unbound drug level in swine brain to plasma at 1.6 mg/kg, iv infusion via saphenous vein after 60 mins by LC-MS/MS analysis; assay type: ADME, organism-based, Sus scrofa; details: pig
value kind: Kp uu at 1 h

>>> test_result("[N-]=[N+]=CC(=O)CC[C@H](N)C(=O)O [6-DIAZO-5-OXO-L-NORLEUCINE]")
0.017
>>> test_result("CC(C)OC(=O)[C@H](CCC(=O)C=[N+]=[N-])NC(=O)OC(OC(=O)C(C)(C)C)c1ccccc1 (some centres not stated)")
0.157

====

assay: AUC (0 to t) in swine at 1.6 mg/kg, iv infusion via saphenous vein after 5 to 60 mins by LC-MS/MS analysis; type: ADME, organism-based, Sus scrofa; conditions: pig, in vivo
value kind: AUC(0-t)

>>> test_result("[N-]=[N+]=CC(=O)CC[C@H](N)C(=O)O")
"29.9 µM·h"
>>> test_result("CC(C)OC(=O)[C@H](CCC(=O)C=[N+]=[N-])NC(=O)O[C@H](C)OC(=O)C(C)(C)C")
"8 µM·h"
>>> test_result("CC(C)OC(=O)[C@H](CCC(=O)C=[N+]=[N-])NC(=O)OC(OC(=O)C(C)(C)C)c1ccccc1 (stereo partly drawn)")
"5.7 µM·h"

====

Recorded Kp at 1 h values for a group of compounds are listed next.
assay: Ratio of total drug level in swine cerebrospinal fluid to plasma at 1.6 mg/kg, iv infusion via saphenous vein after 60 mins by LC-MS/MS analysis; format: ADME, organism-based, Sus scrofa, CSF/Plasma; conditions: pig
value kind: Kp at 1 h

>>> test_result("CC(C)OC(=O)[C@H](CCC(=O)C=[N+]=[N-])NC(=O)OC(OC(=O)C(C)(C)C)c1ccccc1 (some centres not stated)")
0.069
>>> test_result("[N-]=[N+]=CC(=O)CC[C@H](N)C(=O)O")
0.005

====

test: Fraction unbound in swine brain at 1.6 mg/kg, iv infusion via saphenous vein after 60 min post-infusion by LC-MS/MS analysis; assay type: ADME, organism-based, Sus scrofa; conditions: pig, in vivo, 1 h
value kind: Drug uptake(free) (nmol/g)

>>> test_result("CC(C)OC(=O)[C@H](CCC(=O)C=[N+]=[N-])NC(=O)OC(OC(=O)C(C)(C)C)c1ccccc1 (some centres not stated)")
0.53

====

experiment: Ratio of total drug level in swine brain to plasma at 1.6 mg/kg, iv infusion via saphenous vein after 60 mins by LC-MS/MS analysis; assay type: ADME, organism-based, Sus scrofa; details: pig, read-out: BPR
value kind: Kp at 1 h

>>> test_result("CC(C)OC(=O)[C@H](CCC(=O)C=[N+]=[N-])NC(=O)OC(OC(=O)C(C)(C)C)c1ccccc1 (stereo partly specified)")
1.38

====

assay: Half life in swine brain at 10 uM after 30 to 60 mins by LC-MS/MS analysis; format: ADME, tissue-based, Sus scrofa; conditions: pig
Recorded half-life at 10 µM values for a group of compounds are listed next.
value kind: half-life at 10 µM

>>> test_result("CC(C)OC(=O)[C@H](CCC(=O)C=[N+]=[N-])NC(=O)OC(OC(=O)C(C)(C)C)C(C)C (mixture of isomers)")
"35 min"
>>> test_result("CC(C)OC(=O)[C@H](CCC(=O)C=[N+]=[N-])NC(=O)OC(OC(=O)C(C)(C)C)c1ccccc1 (some centres undefined)")
"31 min"
>>> test_result("CC(C)OC(=O)[C@H](CCC(=O)C=[N+]=[N-])NC(=O)OC(C)(C)OC(=O)C(C)(C)C")
"291 min"
>>> test_result("CC(C)OC(=O)[C@H](CCC(=O)C=[N+]=[N-])NC(=O)O[C@H](C)OC(=O)C(C)(C)C")
"75 min"

src = ChEMBL document CHEMBL4038336
